Measured TGI, listed per entry.
system: SF-268 CNS; assay: NCI tumour cell line growth inhibition, 48 h
Unit µM implied. Number only.

Use these answered entries as a reference point.
NCCc1ccc2oc3cc(=O)c4ccccc4c-3nc2c1
15.4
O=C(N/N=C/c1cc(Cl)cc(Cl)c1[O-])c1ccccc1O.O=C(N/N=C/c1cc(Cl)cc(Cl)c1[O-])c1ccccc1O.[Cl-].[Fe+3]
69.8
N#CC1=C(N)Oc2c(ccc3ccccc23)C1c1cccs1 (stereo not given)
10.1

# evaluate next
GET /values?readout=TGI&item= `CSC(=NC#N)S/C=C/C(=O)c1ccc(Cl)cc1` 62.2

----------
Measured TGI, listed per entry.
test system: NCI-H460 lung; assay: NCI tumour cell line growth inhibition, 48 h

Nn1c2c(c3ccccc3c1=O)C(=O)c1ccccc1-2
> 50 µM
O=C1C(Cl)N(c2ccc(Cl)cc2Cl)C1c1c[nH]c2ccccc12 (stereo not given)
> 100 µM
[N-]=[N+]=NC1C2CC3C4CC5CC3[C@H](C2)C(C5)C41 (stereo not given in full)
> 100 µM

What is its TGI for NCI-H460 lung? Entry: NC1C(O)C(O)C(CO)OC1n1cc(F)c(=O)[nH]c1=O (stereo not given) > 100 µM

----------
Measured log10 TGI, listed per entry.
tested on: SK-MEL-28 melanoma; test: NCI tumour cell line growth inhibition, 48 h
Quick note: numbers are log10 of TGI, with µM as the unit.

Use these answered entries as a reference point.
Cc1cc(Cc2cc(Cc3cc(C)cc(C(C)(C)C)c3O)c(C)cc2C)c(O)c(C(C)(C)C)c1
1.57
C[C@]12CCC(=O)CC1CC[C@@H]1C2CC[C@@]2(C)C1CC[C@@H]2OC(=O)CC[Se][Se]CCC(=O)O[C@H]1CCC2[C@@H]3CCC4CC(=O)CC[C@]4(C)C3CC[C@@]21C (some centres undefined)
0.70
COc1cc(-c2csc(NC(=O)Nc3ccc(Cl)c(C(F)(F)F)c3)n2)cc(OC)c1OC
1.05
C=C1C(=O)O[C@H]2[C@H]1CC/C(COC(=O)/C=C\C(=O)NCc1ccc(Cn3c(=O)sn(CCCI)c3=O)cc1)=C\CC[C@@]1(C)O[C@@H]21
0.18
O=c1cc(NCC(O)CN2CCOCC2)n(Cc2ccccc2)c(=O)n1Cc1ccccc1 (centres undefined)
1.85

GET /values?readout=log10 TGI&item= O=S(/C=C/C=C/S(=O)(=O)c1ccccc1)c1ccccc1 (centres undefined) 0.64

And for `O=CN/N=C/c1ccc(Cl)c([N+](=O)[O-])c1` ? 1.38

And for `O=C(Nc1ccc2ncccc2c1)c1cc2c(cc1Cl)Sc1nccn1S2(=O)=O` ? 1.62

And for `Cc1ccc(NC2=N[C@]34CC(=O)CC[C@]3(C)[C@H]3CC[C@]5(C)C(=O)CC[C@H]5[C@@H]3C[C@@H]4S2)c(C)c1` ? 0.78

----------
system: U251 CNS
Just give me one of these, please: y = active, n = inactive

N#CC1=C(N)Oc2c(ccc3ccccc23)C1c1cccs1 (configuration not stated)
y
O=c1ccc2nc(C(F)(F)F)nn(-c3ccccc3)c-2c1
n

Recorded call for `CN(C)CCCn1c2c(c3ccc(-c4ccn[nH]4)cc3c1=O)C(=O)c1ccccc1-2` ? y

And for Cc1cc(C2CC(O)C(CO)O2)c(Cl)cc1Cl (configuration not stated) ? n

And for `COc1ccc2nc3cccc([N+](=O)[O-])c3c(NCCNCCO)c2c1` ? y

And for `CC1(C)CC[C@]2(C(N)=O)CC[C@]3(C)C(=CC[C@@H]4[C@@]5(C)C/C(=C/c6cccnc6)C(=O)C(C)(C)[C@@H]5CC[C@]43C)[C@@H]2C1` ? n

And for `Nn1c2c(c3ccccc3c1=O)C(=O)c1ccccc1-2` ? n
